abundance fitness values by entry
B1: Ankyrin repeat and SOCS box protein 14, residues 532 to 572; numbered along this chain, A6NK59 (parent)
chain: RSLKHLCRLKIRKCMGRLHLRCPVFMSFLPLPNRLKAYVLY

variants of: B1; assay: abundance fitness (aPCA) (normalised: wild type 0, dead -1); higher = more abundant; growth selection in yeast, the domain comes from the species named; conditions: Homo sapiens
Respond using a number only.

Answered cases to consult:
RESIDUE CHANGE: L9A
TEST RESULT: 0.003

RESIDUE CHANGE: F25R
TEST RESULT: -0.116

RESIDUE CHANGE: Y41V
TEST RESULT: 0.398

RESIDUE CHANGE: P30I
TEST RESULT: -0.217

RESIDUE CHANGE: L9P
TEST RESULT: -0.866

Exercise: Given the entry R12I , report its measured abundance fitness.
Key: 0.099

Exercise: Cool, now K13G
Key: 0.045
